# experimental details: TIMS collisional cross section (CCS, N2) of the lipid ion; higher = larger ion cross section
# experimental setup: sample type: HeLa; ionization mode: positive; one isomer drawn
readout name: TIMS collisional cross section (Å²)
Your answer is read as Å², so omit the unit and give the number.

Solved cases below.
INSERT INTO measurements (compound, endpoint_result) VALUES
  ('CCCCCCCC/C=C\CCCCCCCCCC(=O)OC[C@@H](COC(=O)CCCCCCCCCCCCCCC)OC(=O)CCCCCCCCCCCCCCCCC [TG 16:0_18:0_20:1] (ion (formula + adduct): [C57H108O6+NH4] 1+)', 330.3),
  ('CCCCCCCCCCCCCCCCCCCCCC(=O)OC[C@@H](COC(=O)CCCCCCCCCCCCCCC)OC(=O)CCCCCCCCCCCCCCCCCCCC [TG 16:0_21:0_22:0] (ion (formula + adduct): [C62H120O6+NH4] 1+)', 346.3),
  ('CCCCCC/C=C\CCCCCCCC(=O)OC[C@H](COC(=O)CCCCCCCCCCCCCCCCC)OC(=O)CCCCCCCCCCCCCCCC [TG 16:1_17:0_18:0] (ion (formula + adduct): [C54H102O6+NH4] 1+)', 320.7),
  ('CCCCC/C=C\C/C=C\CCCCCCCC(=O)O[C@H](COC(=O)CCCCCCC/C=C\CCCCCC)COP(=O)([O-])OCC[N+](C)(C)C [PC 16:1_18:2@] (ion (formula + adduct): [C42H78NO8P+H] 1+)', 281);

Enquiry: Using the record for CCCCCC/C=C\CCCCCCCC(=O)OC[C@H](CO)OC(=O)CCCCCCC/C=C\CCCCCCCC [DG 16:1_18:1_0:0] (ion (formula + adduct): [C37H68O5+H] 1+) , state its measured TIMS collisional cross section.
Return: 258.1

* * *

# experimental details: TIMS collisional cross section (CCS, N2) of the lipid ion; higher = larger ion cross section
# experimental setup: sample type: HeLa; ionization mode: positive; one isomer drawn
readout name: TIMS collisional cross section
Give the value; after it, write the unit.

Solved cases below.
INSERT INTO assay_data (compound, endpoint_result) VALUES
  ('CCCCCCCC/C=C\CCCCCCCC(=O)OC[C@@H](COC(=O)CCCCCCCCCCCCCCC)OC(=O)CCCCCCCCCCCCCCCC [TG 16:0_17:0_18:1] (ion (formula + adduct): [C54H102O6+NH4] 1+)', '321.9 Å²'),
  ('CCCCC/C=C\C/C=C\C/C=C\C/C=C\CCCCCC(=O)O[C@H](COCCCCCCCCCCCCCCCCCC)COP(=O)([O-])OCC[N+](C)(C)C [PC O- 18:0@_22:4] (ion (formula + adduct): [C48H90NO7P+H] 1+)', '301.9 Å²'),
  ('CCCCC/C=C\C/C=C\C/C=C\CCCCCCC(=O)O[C@@H](CO)COC(=O)CCCCCCC/C=C\CCCCCCCC [DG 18:1_20:3_0:0] (ion (formula + adduct): [C41H72O5+NH4] 1+)', '266.8 Å²'),
  ('CCCCC/C=C\C/C=C\CCCCCCCC(=O)O[C@@H](CO)COC(=O)CCCCCCC/C=C\CCCCCCCC [DG 18:1_18:2_0:0] (ion (formula + adduct): [C39H70O5+NH4] 1+)', '261.1 Å²');

Next compound, please.
Enquiry: Using the record for CCCCCCCC/C=C\CCCCCCCC(=O)O[C@H](COC(=O)CCCCCCCCCCCCCCCC)COP(=O)([O-])OCC[N+](C)(C)C [PC 17:0@_18:1] (ion (formula + adduct): [C43H84NO8P+H] 1+) , state its measured TIMS collisional cross section.
Return: 291.8 Å²
